Data credit: paper PMC7435868

# Tested on: MDA-MB-231
# TEST_PROTOCOL: Cell viability assay (CellTiter Glo), MDA-MB-231
# Format: cell-based
# CONDITIONS_USED: Homo sapiens, 72 h incubation, mean of independent triplicate experiments, read-out: In vitro anti-proliferative activity IC50, MDA-MB-231 ER- PR- HER-
# Description: The antiproliferative activity of compound I as well as its newly synthesised analogues (5a–i) was evaluated in vitro against the three human breast cancer cell lines MDA-MB-231 (TNBC), T47D (ER^+, HER^−), and BT474 (ER^+, HER^+) as well as a human pancreatic cancer cell line MIAPaCa2. […] The luminescence was analysed after 10 min using a PerkinElmer Envision instrument. […]
Threshold 10 µM. IC50 below it: rule met. IC50 at it or above: rule not met.

# example entries with known answers
# COMPOUND, QUALITATIVE_LABEL
rows = [
    ("Cl.NCC(c1ccc(OC(F)(F)F)cc1)c1ccc(OC(F)(F)F)cc1", "rule not met"),
    ("CC(C)(C)c1ccc(C(CN)c2ccccc2F)cc1 (centres unmarked)", "rule not met"),
    ("COc1ccc(C(CN)c2ccc(OC)cc2)cc1", "rule not met"),
    ("CC(C)(C)c1ccc(C(CN)c2ccc(C(C)(C)C)cc2)cc1.Cl", "rule met"),
    ("CC(C)(C)c1ccc(C(CN)c2ccc(F)cc2)cc1.Cl (centres unmarked)", "rule not met"),
]

Hello, I'm reviewing records and need to know if IC50 of CC(C)(C)c1ccc(C(CN)c2ccc(Cl)cc2)cc1 (centres unmarked) is below 10 µM. Could you check?
rule met

---

# TEST_PROTOCOL: Microsomal metabolic stability
# CONDITIONS_USED: human, pooled liver microsomes, pH 7.4
ENDPOINT: half-life at 3 μM
State the value with its unit after it.

Consider the following illustrative entries.
# MOLECULE, half-life at 3 μM
records = [
    ("CC(C)(C)c1ccc(C(CN)c2ccc(OC(F)(F)F)cc2)cc1 (centres unmarked) [5a]", "2.6 h"),
    ("Cl.NCC(c1ccc(OC(F)(F)F)cc1)c1ccc(OC(F)(F)F)cc1 [5h]", "9.82 h"),
]

For the molecule CC(C)(C)c1ccc(C(CN)c2ccc(F)cc2)cc1.Cl (centres unmarked) [5c] , what half-life at 3 μM is on record?
2.8 h

For CC(C)(C)c1ccc(C(CN)c2ccc(Cl)cc2)cc1 (centres unmarked) [Compound I] then?
2.53 h

Moving on to the next molecule: Cl.NCC(c1ccc(Cl)cc1)c1ccc(OC(F)(F)F)cc1 (centres unmarked) [5g]
1.67 h

---

# System: MDA-MB-231
# TEST_PROTOCOL: Cell viability assay (CellTiter Glo), MDA-MB-231
# Type: cell-based
# CONDITIONS_USED: Homo sapiens, 72 h incubation, mean of independent triplicate experiments, read-out: In vitro anti-proliferative activity IC50, MDA-MB-231 ER- PR- HER-
pIC50: −log10 of the molar value. Counter-ions that a name gives are not always drawn.
Tag: YES if measured pIC50 is not below 5, NO if it is.

Reference set (3 entries):
# COMPOUND, QUALITATIVE_LABEL
records = [
    ("Cl.NCC(c1ccc(Cl)cc1)c1ccc(OC(F)(F)F)cc1 (centres unmarked) [5g]", "NO"),
    ("CC(C)(C)c1ccc(C(CN)c2ccc(OC(F)(F)F)cc2)cc1 (centres unmarked) [5a]", "YES"),
    ("CN(C)CCN(Cc1ccc(Cl)cc1)c1ccccn1 [C4, chloropyramine hydrochloride, reference compound]", "NO"),
]

# evaluate next
Test whether the compound CC(C)(C)c1ccc(C(CN)c2cccc(F)c2)cc1 (centres unmarked) [5e] records pIC50 of 5 or higher.
NO
